- System: EKVX NSCLC
- assay comment: NCI tumour cell line growth inhibition, 48 h
assay metric: TGI

Worked cases, TGI given:
- molecule: "CCCCCc1cc(OC(=O)c2c(O)cc(OC)cc2CCCCC)cc(O)c1C(=O)O"
  recorded result: "39.9 µM"
- molecule: "O=[N+]([O-])c1cccc(-c2csc(N=Nc3c(O)[nH]c4ccccc34)n2)c1"
  recorded result: "61.8 µM"
- molecule: "NCCC(N)C(=O)O (configuration not stated)"
  recorded result: "> 100 µM"
- molecule: "CC(C)Oc1c(-c2c(OC(C)C)c(=O)c2=O)c(=O)c1=O"
  recorded result: "> 64.9 µM"
- molecule: "O=C(c1ccccc1)C(C(=O)c1ccccc1)C1(O)C(=O)c2ccccc2C1=O"
  recorded result: "> 100 µM"

stdin: Entry `CC(C)(CO)CNc1cc(=O)[nH]c(N)n1` has what TGI?
stdout: > 100 µM

stdin: Entry `COc1ccc2nc3cc(Cl)ccc3c(NCCCCCC(=O)NC(COc3cnc4c(ccc5cccnc54)c3)COc3cnc4c(ccc5cccnc54)c3)c2c1` has what TGI?
stdout: > 100 µM

stdin: Entry `CS(=O)(=O)CCNCc1nc(-c2ccc3ncnc(Nc4ccc(F)c(Cl)c4)c3c2)cs1` has what TGI?
stdout: > 25 µM

stdin: Entry `COC(=O)/C=C/c1ccccc1N=[S@](C)(=O)c1ccc(C)cc1` has what TGI?
stdout: > 100 µM

stdin: Entry `COC(=O)Cc1ccc2c(c1)Sc1ccc(CC(=O)OC)cc1N2C` has what TGI?
stdout: > 100 µM

* * *

TGI listing for selected compounds.
- System: LOX IMVI melanoma
- assay comment: NCI tumour cell line growth inhibition, 48 h

- compound: "COc1cccc2cc(C)c(C(=O)c3ccccc3)nc12"
  recorded result: "> 100 µM"

stdin: Entry COc1cc(C2C=C(c3cccc(NC(C)=O)c3)Nc3ncnn32)cc(OC)c1OC (stereo not drawn) has what TGI?
stdout: > 100 µM

stdin: Entry COC1C(O)CC(OC2C(C)OC(Oc3cc(O)c4c(O)c5c(cc4c3)C[C@@H]([C@H](OC)C(=O)[C@@H](O)[C@@H](C)O)[C@H](OC3CC(OC4CC(OC6CC(C)(O)C(O)C(C)O6)C(O)C(C)O4)C(O)C(C)O3)C5=O)CC2OC(C)=O)OC1C (stereo partly drawn) has what TGI?
stdout: > 100 µM

* * *

- System: DLD-1 colon
- assay comment: NCI tumour cell line growth inhibition, 48 h
assay metric: TGI

Worked cases, TGI given:
- compound: "CN1CC[C@@H](c2c(O)cc(O)c3c(=O)cc(-c4ccccc4Cl)oc23)[C@@H](O)C1"
  assay target: "DLD-1 colon"
  TGI: "> 100 µM"
- compound: "Nn1c(-c2ccccc2)nc2ccc(Br)cc2c1=O"
  assay target: "DLD-1 colon"
  TGI: "> 100 µM"

Now, please, on to the next compound.
stdin: Entry O=C1C(Br)=CC2([N+](=O)[O-])CCNc3c(O)c4c5c(c3C2=C1Br)=NCCC=5C=N4 (stereo unspecified) has what TGI?
stdout: 1.49 µM

* * *

- Test system: RXF 393 renal
- assay comment: NCI tumour cell line growth inhibition, 48 h
TGI listing for selected compounds.

- compound: "CCCCOC(=O)C(=O)C(CCC(=O)c1ccc(C)cc1)C(=O)C=C(C)C (stereo not given)"
  TGI: "> 100 µM"
- compound: "OC(C1CCC=NN1C(O)(C(F)(F)F)C(F)(F)F)(C(F)(F)F)C(F)(F)F (stereo not given)"
  TGI: "> 10 µM"
- compound: "Cn1ccnc1S/C(=C\\C=C(C#N)C#N)c1ccc(Cl)cc1"
  TGI: "5.4 µM"
- compound: "CCC[CH2][Sn-]([CH2]CCC)([CH2]CCC)[O]c1cc(Cl)c(Cl)cc1Cl"
  TGI: "0.509 µM"
- compound: "CCOc1cc2ncc(C#N)c(Nc3ccc(OCc4cccc(F)c4)c(Cl)c3)c2cc1NC(=O)CC1CCSS1 (stereo not given)"
  TGI: "15.8 µM"
- compound: "CCOC(=O)c1ccc(NC(=O)N2CC(C)OC(C)C2)cc1 (stereo not given)"
  TGI: "> 100 µM"
- compound: "CC(C)C[C@H](NC(=O)[C@H](Cc1cccc2ccccc12)NC(=O)N1CCOCC1)B(O)O"
  TGI: "0.00195 µM"
- compound: "CCC(CCCN)Nc1cc(OC)cc2cccnc12 (stereo not given)"
  TGI: "> 100 µM"

stdin: Entry `COc1ccc(N(C(=O)Nc2ccc(Cl)c(Cl)c2)c2ccccc2)cc1` has what TGI?
stdout: > 10 µM

stdin: Entry `COc1cc(-c2nc3cc(F)ccc3s2)ccc1O` has what TGI?
stdout: > 100 µM

stdin: Entry `CN(C)c1ccc(/C=N/Nc2nc3ccccc3c(=O)n2-c2ccccc2)cc1` has what TGI?
stdout: > 100 µM

stdin: Entry `COc1cc2c(cc1OC)C(=O)/C(=C/c1cccc(OCC(=O)c3ccccc3)c1)C2` has what TGI?
stdout: > 100 µM

stdin: Entry `Cc1ccc(N=Nc2c(C)nn(C(=O)CC(=O)Nc3ccccc3)c2C)cc1C` has what TGI?
stdout: > 100 µM

stdin: Entry `CN(C)c1ccc(N2C(=S)SC(=Nc3ccccc3)C2=Nc2ccccc2)cc1` has what TGI?
stdout: > 100 µM
